biological target: Human immunodeficiency virus type 1 reverse transcriptase (Human immunodeficiency virus 1); experiment: Effective concentration required against wild type HIV-1 reverse transcriptase
measured endpoint: pEC50
FYI, pEC50 means -log10 of a concentration in mol per litre.

Lookup: So what does the record say about pEC50 for "CCOCn1c(Cc2ccccc2)c(C(C)C)c(=O)[nH]c1=O" ?
Found: 8.70

Lookup: Try "CC(C)=CCOc1cc(NC(=S)c2ccoc2C)ccc1Cl" next.
Found: 8.05

Lookup: Next: "CC(C)=CCN1Cc2cc(Cl)cc3[nH]c(=S)n(c23)C[C@@H]1C"
Found: 7.22
